target: human 5-HT1A receptors (Homo sapiens, UniProt P08908); construct: expressed in transfected cells; host or cells: CHO cells; experiment: [3H] 8-OHDPAT displacement, 5-HT1A receptor affinity; type: binding
Sequence (P08908 whole entry): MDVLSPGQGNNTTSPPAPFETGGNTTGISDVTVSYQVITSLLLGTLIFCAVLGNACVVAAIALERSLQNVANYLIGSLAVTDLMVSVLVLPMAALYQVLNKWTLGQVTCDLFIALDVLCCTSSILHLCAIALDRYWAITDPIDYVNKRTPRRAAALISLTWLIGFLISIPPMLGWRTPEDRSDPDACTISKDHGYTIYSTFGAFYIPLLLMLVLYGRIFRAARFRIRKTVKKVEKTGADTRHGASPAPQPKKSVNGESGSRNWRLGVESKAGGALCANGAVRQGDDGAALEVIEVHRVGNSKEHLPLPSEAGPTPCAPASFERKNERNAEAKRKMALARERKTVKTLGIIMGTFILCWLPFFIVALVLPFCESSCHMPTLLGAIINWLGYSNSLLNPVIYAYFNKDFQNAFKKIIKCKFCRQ

| Molecule | Endpoint Unit | Ki |
| --- | --- | --- |
| C1=C(c2c[nH]c3ccccc23)CCN(CC2COc3ccc4c(c3O2)OCCC4)C1 (stereo not drawn) [Example 4] | nM | 44.1 |
| Fc1ccc2[nH]cc(C3=CCN(CC4COc5ccc6c(c5O4)OCCC6)CC3)c2c1 (stereo not drawn) [Example 2] | nM | 27.6 |
| O=c1ccoc2c3c(ccc12)OC[C@H](CN1CC=C(c2c[nH]c4ccc(F)cc24)CC1)O3 [Example 1] | nM | 119 |
